Values were extracted from ChEMBL document CHEMBL5042506.

ASSAY DETAILS: Cmax in ICR mouse at 5 mg/kg, po measured over 24 hrs by LC-MS/MS analysis
Assay type: ADME, organism-based
Parameters: route oral, dose 5 mg/kg, time >24
CONDITION DETAILS: in vivo
ATTRIBUTE MEASURED: Cmax (ng/mL)
# unit: ng/mL | format: bare number

Lookup: Report Cmax for Cc1c(Nc2nc3c(s2)CCCC3O)cc(Cl)cc1OC1CCN(C(=O)CC(C(F)(F)F)C(F)(F)F)CC1 (racemic) please.
Found: 213

###

ASSAY DETAILS: Clearance in ICR mouse at 1 mg/kg, iv measured over 24 hrs by LC-MS/MS analysis
Type: ADME, organism-based
CONDITION DETAILS: in vivo
ATTRIBUTE MEASURED: clearance (mL/min/kg)
# unit: mL/min/kg | format: bare number

Lookup: Report clearance for Cc1c(Nc2nc3c(s2)CCCC3O)cc(Cl)cc1OC1CCN(C(=O)CC(C(F)(F)F)C(F)(F)F)CC1 (racemic) please.
Found: 26.6
